Data origin: patent US20190315771A1

molecular target: human TPOR (Homo sapiens); assay: Proliferation of BAF3/TPOR cells (MTS method, OD490); conditions: BAF3 cells stably expressing human TPOR, cultured with compound 24 h
Sequence (P40238 26-635): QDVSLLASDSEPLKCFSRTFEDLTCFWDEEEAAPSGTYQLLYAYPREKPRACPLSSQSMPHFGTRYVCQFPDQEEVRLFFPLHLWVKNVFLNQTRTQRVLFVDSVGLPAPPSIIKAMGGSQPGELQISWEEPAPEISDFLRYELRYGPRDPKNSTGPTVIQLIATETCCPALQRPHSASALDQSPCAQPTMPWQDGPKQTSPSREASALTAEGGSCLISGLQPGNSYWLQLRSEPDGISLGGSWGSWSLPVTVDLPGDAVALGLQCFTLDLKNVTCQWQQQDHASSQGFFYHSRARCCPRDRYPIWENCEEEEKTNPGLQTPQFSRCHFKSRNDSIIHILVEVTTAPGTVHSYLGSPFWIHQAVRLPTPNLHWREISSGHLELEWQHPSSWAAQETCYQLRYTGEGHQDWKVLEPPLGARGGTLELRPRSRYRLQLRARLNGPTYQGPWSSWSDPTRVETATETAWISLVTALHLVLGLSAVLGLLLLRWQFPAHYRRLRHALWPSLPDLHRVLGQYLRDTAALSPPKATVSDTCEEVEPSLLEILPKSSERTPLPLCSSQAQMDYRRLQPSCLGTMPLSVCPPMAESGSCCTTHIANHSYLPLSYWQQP
pEC50: −log10 of the molar value.
Readout Type: pEC50

1. C/C(=C\c1c(Cl)cc(C(=O)Nc2nc(-c3cc(Cl)cs3)c(N3CC4CCN(C5CCC5)C4C3)s2)cc1Cl)C(=O)O (stereo not drawn) : 9.47
2. C/C(=C\c1c(Cl)cc(C(=O)Nc2nc(-c3cc(Cl)cs3)c(N3CCC4C(CCN4C4CCCCC4)C3)s2)cc1Cl)C(=O)O (stereo not drawn) : 9.22
3. C/C(=C\c1c(Cl)cc(C(=O)Nc2nc(-c3cc(Cl)cs3)c(N3CC4CCN(C5CCCC5)C4C3)s2)cc1Cl)C(=O)O (stereo not drawn) : 10.15
4. O=C(Nc1nc(-c2cc(Cl)cs2)c(N2CC3CCN(C4CCCCCC4)C3C2)s1)c1cnc(N2CCC(C(=O)O)CC2)c(Cl)c1 (stereo not drawn) : 8.95
5. O=C(Nc1nc(-c2cc(Cl)cs2)c(N2CC3CCC2CN3C2CCCCC2)s1)c1cnc(N2CCC(C(=O)O)CC2)c(Cl)c1 (stereo not drawn) : 9.05
6. O=C(Nc1nc(-c2cc(Cl)cs2)c(N2CC3CCN(C4C[C@H]5CC[C@@H]4C5)C3C2)s1)c1cnc(N2CCC(C(=O)O)CC2)c(Cl)c1 (stereo in doubt) : 9.68
